Target or system Histamine H1 receptor (Homo sapiens, UniProt P35367): recorded Ki listed per item.
Quick note: give the figure in nM, leave out the unit.

Recorded results for 5 compounds are shown here.
>>> readout_value("CCCCCC(=O)c1ccc(OCCCN2CCN(C(=O)OCC)CC2)cc1")
275
>>> readout_value("CCCCCC(=O)c1ccc(OCCCN2CCN(C(=O)c3ccc(C)s3)CC2)cc1")
97.7
>>> readout_value("CCOC(=O)N1CCN(CCCOc2ccc(C(=O)c3ccc(C(C)(C)C)cc3)cc2)CC1")
562
>>> readout_value("CCCCCC(=O)c1ccc(OCCCN2CCN(CC3CC3)CC2)cc1")
2240
>>> readout_value("CCCCCC(=O)c1ccc(OCCCN2CCN(C(=O)c3cccnc3)CC2)cc1")
724

Give the measured Ki of CCCCCC(=O)c1ccc(OCCCN2CCN(C(=O)c3cccs3)CC2)cc1 .
74.1

Give the measured Ki of CCCCCC(=O)c1ccc(OCCCN2CCN(C(=O)CC)CC2)cc1 .
1910

Give the measured Ki of C=C(C)C(=O)c1ccc(OCCCN2CCN(C(=O)OCC)CC2)cc1 .
977

Give the measured Ki of CCCC(=O)c1ccc(OCCCN2CCN(C(=O)OCC)CC2)cc1 .
741

Give the measured Ki of CCCCCC(=O)c1ccc(OCCCN2CCN(CC(C)C)CC2)cc1 .
457

Give the measured Ki of CCCCCC(=O)c1ccc(OCCCN2CCN(C(=O)NC(C)C)CC2)cc1 .
1200
